These data points were gathered from patent US20230365699A1.

# targetUnderTest: human BCMA (B-cell maturation antigen) expressed on cells (human) (UniProt Q02223)
# Sequence (Q02223 whole entry): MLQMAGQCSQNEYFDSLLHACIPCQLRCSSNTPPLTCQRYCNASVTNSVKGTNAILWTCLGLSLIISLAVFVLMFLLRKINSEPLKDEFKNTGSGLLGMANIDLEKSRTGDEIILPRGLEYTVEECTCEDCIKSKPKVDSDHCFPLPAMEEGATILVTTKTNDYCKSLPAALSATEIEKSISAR
# assayText: flow cytometry, hBCMA-expressing HEK293 cells against parental HEK293 cells
Attribute: fold selective binding (hBCMA-expressing HEK293 over parental HEK293)
Field format: number, assumed fold, no unit text.

Recorded results for 3 binders are shown here.
BCMA-18 scFv (scFv) scFv: EVQLLESGGGLVQPGGSLRLSCAASGFTFSSYWMSWHRQAPGKGPEWVAHINQDGSEKYYVDSVKGRFTISRDNAESSLYLQMNSLRAEDTAVYYCARWLAVTNWGQGTLVTVSSGGGGSGGGGSGGGGSQSVLTQPPSASGTPGQRVTISCSGSGSNIGSNDVSWYQQIPGTAPKLLIYWNDQRPSGVPDRFSGSKSGTSASLAISGLRSEDEADYYCAAWDDSLNGWVFGGGTKLTVL :: 2.2
BCMA-22 scFv (scFv) scFv: EVQLVESGGGLVKPGGSLRLSCAASGFTFSDYYMSWIRQAPGKGLEWVSYISSSGSTIYYADSVKGRFTISRDNAKNSLYLQMNSLRAEDTAVYYCAKVDGDYTEDYWGQGTLVTVSSGGGGSGGGGSGGGGSQSALTQPASVSGSPGQSITISCTGSSSDVGKYNLVSWYQQPPGKAPKLIIYDVNKRPSGVSNRFSGSKSGNTATLTISGLQGDDEADYYCCSYGGSRSYVFGTGTKVTVL :: 7.5
BCMA-21 scFv (scFv) scFv: EVQLVESGGGLVKPGGSLKLSCAASGFTFSDYYMSWIRQAPGKGLEWVSYISSSGSTIYYADSVKGRFTISRDNAKNSLYLQMNSLRAEDTAVYYCAKVDGGYTEDYWGQGTLVTVSSGGGGSGGGGSGGGGSQSVLTQPPSASGTPGQRVTISCSGSGSNIGSNDVSWYQQIPGTAPKLLIYWNDQRPSGVPDRFSGSKSGISASLAISGLRSEDEADYYCAAWDDSLNGYVFGTGTKVTVL :: 3.4

Here is the next item to consider.
Ask: Quick one: fold selective binding (hBCMA-expressing HEK293 over parental HEK293) for BCMA-20 scFv (scFv) scFv: EVQLLESGGGLVQPGRSLRLSCAASGFTFDDYAMHWVRQAPGKGLEWVSGISWNSGSIGYADSVKGRFTISRDNAKNSLYLQMNSLRAEDTALYYCAKGGLGITPYYFDYWGQGTLVTVSSGGGGSGGGGSGGGGSQPVLTQPPSASGTPGQRVTISCSGGKTVNWFRQVPGTAPQLLIYSNDQRPSGVPDRFSGSKSGSSASLDISGLQSEDEAYYYCGSWDDSLNAWVFGGETKLTVL ?
Result: 10.8
